- ASSAY_EXPLANATION: Drug uptake in lung of guinea pig measured over 24 hrs
- Type: ADME, tissue-based, Cavia porcellus
- TEST_PARAMETERS: read-out: Drug uptake
ATTRIBUTE_MEASURED: concentration at 24 h

Entry under test: Cc1c(Cl)cccc1CCCCOc1ccc(/C=C/c2cccc3c(CCCC(=O)O)c(C)n(CC(=O)O)c23)cc1 . Its concentration at 24 h was 253 ng/g

###

Recorded Vd by entry
- ASSAY_EXPLANATION: Volume of distribution at steady state in dog at 1 mg/kg, iv and 1 mg/kg, po
- Type: ADME, organism-based, Canis lupus familiaris
- TEST_PARAMETERS: in vivo, read-out: Vdss
Record the value in L/kg, omitting the unit from your answer.

INSERT INTO assay_data (compound_structure, unit_of_measure, test_result) VALUES
  ('Cc1c(Cl)cccc1CCCCOc1ccc(/C=C/c2cccc3c(CCCC(=O)O)c(C)n(CC(=O)O)c23)cc1', 'L/kg', 0.38);

Moving on to the next compound.
Entry under test: Cc1c(F)cccc1CCCCOc1ccc(C#Cc2ccc(F)c3c(CCCC(=O)O)c(C)n(CCCC(=O)O)c23)cc1 . Its Vd was 0.14

###

- ASSAY_EXPLANATION: Volume of distribution at steady state in rat at 1 mg/kg, iv and 3 mg/kg, po
- Assay type: ADME, organism-based
- TEST_PARAMETERS: in vivo, read-out: Vdss
ATTRIBUTE_MEASURED: Vd (L/kg)
Record the value in L/kg, omitting the unit from your answer.

Entry under test: Cc1c(Cl)cccc1CCCCOc1ccc(/C=C/c2cccc3c(CCCC(=O)O)c(C)n(CC(=O)O)c23)cc1 . Its Vd was 0.3

###

- ASSAY_EXPLANATION: Oral bioavailability in guinea pig at 10 mg/kg
- Assay type: ADME, organism-based, Cavia porcellus
- TEST_PARAMETERS: in vivo
ATTRIBUTE_MEASURED: bioavailability
A bare number is not enough; add the unit after it.

Some solved entries appear below for comparison.
INSERT INTO assay_data (compound_structure, attribute_measured, test_result) VALUES
  ('O=C(O)CCCc1cn(CC(=O)O)c2c(/C=C/c3ccc(OCCCCOc4ccccc4)cc3)cccc12', 'bioavailability', '12%'),
  ('Cc1c(Cl)cccc1CCCCOc1ccc(/C=C/c2cccc3c(CCCC(=O)O)c(C)n(CC(=O)O)c23)cc1', 'bioavailability', '11%');

Entry under test: O=C(O)CCCn1cc(CC(=O)O)c2c(/C=C/c3ccc(OCCCCOc4ccccc4)cc3)cccc21 . Its bioavailability was 26%

###

- ASSAY_EXPLANATION: Half life in guinea pig at 0.2 mg/kg, iv administered as cassette dosing
- Type: ADME, organism-based, Cavia porcellus
- TEST_PARAMETERS: in vivo
ATTRIBUTE_MEASURED: half-life (h)
Record the value in h, omitting the unit from your answer.

Entry under test: Cc1c(F)cccc1CCCCOc1ccc(C#Cc2ccc(F)c3c(CCCC(=O)O)c(C)n(CCCC(=O)O)c23)cc1 . Its half-life was 7.1

###

- ASSAY_EXPLANATION: Ratio of drug level in lung to plasma in guinea pig measured over 24 hrs
- Type: ADME, Cavia porcellus
- TEST_PARAMETERS: lung and plasma
ATTRIBUTE_MEASURED: Kp at 24 h

Entry under test: Cc1c(Cl)cccc1CCCCOc1ccc(/C=C/c2cccc3c(CCCC(=O)O)c(C)n(CC(=O)O)c23)cc1 . Its Kp at 24 h was 15

###

- ASSAY_EXPLANATION: Cmax in guinea pig at 1 mg/kg, po administered as cassette dosing
- Format: ADME, organism-based, Cavia porcellus
- Design: dose 1 mg/kg, route oral
- TEST_PARAMETERS: in vivo
ATTRIBUTE_MEASURED: Cmax (ng/mL)
Record the value in ng/mL, omitting the unit from your answer.

Entry under test: Cc1c(F)cccc1CCCCOc1ccc(C#Cc2ccc(F)c3c(CCCC(=O)O)c(C)n(CCCC(=O)O)c23)cc1 . Its Cmax was 1010

###

- ASSAY_EXPLANATION: AUC in rat at 3 mg/kg, po
- Type: ADME, organism-based
- TEST_PARAMETERS: in vivo
ATTRIBUTE_MEASURED: AUC (ng·h/mL)
Record the value in ng·h/mL, omitting the unit from your answer.

Entry under test: Cc1c(Cl)cccc1CCCCOc1ccc(/C=C/c2cccc3c(CCCC(=O)O)c(C)n(CC(=O)O)c23)cc1 . Its AUC was 39000

###

- ASSAY_EXPLANATION: Clearance in rat at 0.2 mg/kg, iv and 1 mg/kg, po administered as cassette dosing
- Type: ADME, organism-based
- TEST_PARAMETERS: in vivo
ATTRIBUTE_MEASURED: clearance (mL/min/kg)
Record the value in mL/min/kg, omitting the unit from your answer.

Entry under test: Cc1c(F)cccc1CCCCOc1ccc(C#Cc2ccc(F)c3c(CCCC(=O)O)c(C)n(CCCC(=O)O)c23)cc1 . Its clearance was 1.1

###

- ASSAY_EXPLANATION: AUC in dog at 1 mg/kg, po
- Assay type: ADME, organism-based, Canis lupus familiaris
- TEST_PARAMETERS: in vivo
ATTRIBUTE_MEASURED: AUC (ng·h/mL)
Record the value in ng·h/mL, omitting the unit from your answer.

Entry under test: Cc1c(Cl)cccc1CCCCOc1ccc(/C=C/c2cccc3c(CCCC(=O)O)c(C)n(CC(=O)O)c23)cc1 . Its AUC was 650

###

- ASSAY_EXPLANATION: Plasma concentration in guinea pig at 3 mg/kg, po measured over 7 days
- Assay type: ADME, organism-based, Cavia porcellus
ATTRIBUTE_MEASURED: concentration at 168 h
A bare number is not enough; add the unit after it.

Entry under test: Cc1c(F)cccc1CCCCOc1ccc(C#Cc2ccc(F)c3c(CCCC(=O)O)c(C)n(CCCC(=O)O)c23)cc1 . Its concentration at 168 h was 0.083 µg/mL

###

- ASSAY_EXPLANATION: Volume of distribution at steady state in rat at 0.2 mg/kg, iv and 1 mg/kg, po administered as cassette dosing
- Assay type: ADME, organism-based
- TEST_PARAMETERS: in vivo, read-out: Vdss
ATTRIBUTE_MEASURED: Vd (L/kg)
Record the value in L/kg, omitting the unit from your answer.

Entry under test: Cc1c(F)cccc1CCCCOc1ccc(C#Cc2ccc(F)c3c(CCCC(=O)O)c(C)n(CCCC(=O)O)c23)cc1 . Its Vd was 0.31

###

- ASSAY_EXPLANATION: Drug uptake in lung of guinea pig at 0.3 mg/kg, po measured over 7 days
- Assay type: ADME, organism-based, Cavia porcellus
- TEST_PARAMETERS: read-out: Drug uptake
ATTRIBUTE_MEASURED: concentration at 168 h (ng/g)
Record the value in ng/g, omitting the unit from your answer.

Entry under test: Cc1c(F)cccc1CCCCOc1ccc(C#Cc2ccc(F)c3c(CCCC(=O)O)c(C)n(CCCC(=O)O)c23)cc1 . Its concentration at 168 h was 267

###

- ASSAY_EXPLANATION: Oral bioavailability in dog at 1 mg/kg
- Format: ADME, organism-based, Canis lupus familiaris
- TEST_PARAMETERS: in vivo
ATTRIBUTE_MEASURED: bioavailability
A bare number is not enough; add the unit after it.

Entry under test: Cc1c(Cl)cccc1CCCCOc1ccc(/C=C/c2cccc3c(CCCC(=O)O)c(C)n(CC(=O)O)c23)cc1 . Its bioavailability was 21%

###

- ASSAY_EXPLANATION: Oral bioavailability in guinea pig at 30 mg/kg
- Format: ADME, organism-based, Cavia porcellus
- TEST_PARAMETERS: in vivo
ATTRIBUTE_MEASURED: bioavailability (%)
Record the value in %, omitting the unit from your answer.

Entry under test: O=C(O)CCCN1CC(C(=O)O)Oc2c(NC(=O)c3ccc(OCCCCc4ccccc4)cc3)cccc21 (stereo unspecified) . Its bioavailability was 2.8

###

- ASSAY_EXPLANATION: Cmax in rat at 1 mg/kg, po
- Format: ADME, organism-based
- Parameters: dose 1 mg/kg, route oral
- TEST_PARAMETERS: in vivo
ATTRIBUTE_MEASURED: Cmax (ng/mL)
Record the value in ng/mL, omitting the unit from your answer.

Entry under test: Cc1c(F)cccc1CCCCOc1ccc(C#Cc2ccc(F)c3c(CCCC(=O)O)c(C)n(CCCC(=O)O)c23)cc1 . Its Cmax was 1190

###

- ASSAY_EXPLANATION: AUC in guinea pig at 1 mg/kg, po administered as cassette dosing
- Format: ADME, organism-based, Cavia porcellus
- TEST_PARAMETERS: in vivo
ATTRIBUTE_MEASURED: AUC (ng·h/mL)
Record the value in ng·h/mL, omitting the unit from your answer.

Entry under test: Cc1c(F)cccc1CCCCOc1ccc(C#Cc2ccc(F)c3c(CCCC(=O)O)c(C)n(CCCC(=O)O)c23)cc1 . Its AUC was 8510
